Biological target: T1, EsCas13d, nuclease-dead (Eubacterium siraeum, UniProt B0MS50, R295A;H300A;R849A;H854A)
T1 sequence: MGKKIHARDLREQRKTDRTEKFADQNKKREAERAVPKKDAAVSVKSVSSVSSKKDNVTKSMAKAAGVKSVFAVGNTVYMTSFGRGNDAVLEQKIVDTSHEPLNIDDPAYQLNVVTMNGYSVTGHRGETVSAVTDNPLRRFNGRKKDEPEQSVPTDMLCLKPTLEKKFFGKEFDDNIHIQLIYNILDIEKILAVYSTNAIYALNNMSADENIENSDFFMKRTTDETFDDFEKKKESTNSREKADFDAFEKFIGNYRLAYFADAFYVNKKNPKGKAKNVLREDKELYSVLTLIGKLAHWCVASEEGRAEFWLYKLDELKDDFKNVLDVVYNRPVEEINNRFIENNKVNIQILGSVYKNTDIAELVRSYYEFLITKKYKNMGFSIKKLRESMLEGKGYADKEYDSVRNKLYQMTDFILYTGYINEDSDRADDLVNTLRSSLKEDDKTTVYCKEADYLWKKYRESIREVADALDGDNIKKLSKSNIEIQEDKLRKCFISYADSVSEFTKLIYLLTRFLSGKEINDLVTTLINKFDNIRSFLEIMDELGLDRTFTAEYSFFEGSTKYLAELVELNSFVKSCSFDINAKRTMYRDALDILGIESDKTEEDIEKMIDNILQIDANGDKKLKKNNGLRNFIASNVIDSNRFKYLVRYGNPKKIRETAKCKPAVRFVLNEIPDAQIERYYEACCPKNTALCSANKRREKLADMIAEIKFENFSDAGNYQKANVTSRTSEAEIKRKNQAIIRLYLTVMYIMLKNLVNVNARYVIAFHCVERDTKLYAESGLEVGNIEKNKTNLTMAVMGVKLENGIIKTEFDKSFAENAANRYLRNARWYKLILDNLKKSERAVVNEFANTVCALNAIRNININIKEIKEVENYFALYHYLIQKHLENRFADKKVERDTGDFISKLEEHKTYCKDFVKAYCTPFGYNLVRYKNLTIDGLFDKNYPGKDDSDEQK
Experiment: crRNA (strand 1, pre-loaded); Mg2+; 40 mM Tris-HCl pH 7.5, 150 mM NaCl, 6 mM MgCl2, 1 mM DTT, 0.1% Tween-20, 0.2 mg/ml BSA; 25 C; 10 min per concentration, then washed
Details: tags: His6-TwinStrep-SUMO cleaved; N-terminal SNAP kept (SNAP-Surface 488); label: 3' end held by stalled T7 RNA polymerase
Please go through the items and note down their pKd.
Scale note: pKd = -log10(concentration in M).

# input State the recorded pKd for this entry: target 1 insC 3' of 9,insA 3' of 7 (mixed) RNA 1: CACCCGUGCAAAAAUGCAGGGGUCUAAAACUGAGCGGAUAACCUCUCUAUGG RNA 2: GGGAAUGGAUCCACAUCUACGAAUUCGUACCAUAGAGAGGUUACUCACGCUCACCGAGAUCGGAAGAGCACACGU
# output 7.98

# input State the recorded pKd for this entry: target 2 MT 5'PFS UAU 3'PFS UCG (mixed) RNA 1: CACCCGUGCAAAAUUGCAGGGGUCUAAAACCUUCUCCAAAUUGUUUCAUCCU RNA 2: GGGAAUGGAUCCACAUCUACGAAUUCUAUAGGAUGAAACAAUUUGGAGAAGUCGAGAUCGGAAGAGCACACGU
# output 7.57

# input State the recorded pKd for this entry: target 2 MT 5'PFS GAU 3'PFS ACA (mixed) RNA 1: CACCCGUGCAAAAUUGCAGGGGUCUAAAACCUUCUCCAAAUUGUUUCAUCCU RNA 2: GGGAAUGGAUCCACAUCUACGAAUUCGAUAGGAUGAAACAAUUUGGAGAAGACAAGAUCGGAAGAGCACACGU
# output 7.97

# input State the recorded pKd for this entry: target 1 MT 5'PFS GUG 3'PFS AUA (mixed) RNA 1: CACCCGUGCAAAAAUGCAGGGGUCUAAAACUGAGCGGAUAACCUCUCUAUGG RNA 2: GGGAAUGGAUCCACAUCUACGAAUUCGUGCCAUAGAGAGGUUAUCCGCUCAAUAAGAUCGGAAGAGCACACGU
# output 7.74

# input State the recorded pKd for this entry: target 2 MT 5'PFS UCG 3'PFS UCA (mixed) RNA 1: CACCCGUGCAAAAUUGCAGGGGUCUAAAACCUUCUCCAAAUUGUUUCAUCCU RNA 2: GGGAAUGGAUCCACAUCUACGAAUUCUCGAGGAUGAAACAAUUUGGAGAAGUCAAGAUCGGAAGAGCACACGU
# output 7.68

# input State the recorded pKd for this entry: target 1 insC 3' of 14,insA 3' of 4 (mixed) RNA 1: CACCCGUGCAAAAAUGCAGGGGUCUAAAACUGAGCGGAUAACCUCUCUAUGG RNA 2: GGGAAUGGAUCCACAUCUACGAAUUCGUACCAUAGAGACGGUUAUCCGCAUCACCGAGAUCGGAAGAGCACACGU
# output 7.61

# input State the recorded pKd for this entry: target 1 U10C,U11A (mixed) RNA 1: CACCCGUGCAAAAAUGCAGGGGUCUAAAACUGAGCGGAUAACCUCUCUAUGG RNA 2: GGGAAUGGAUCCACAUCUACGAAUUCGUACCAUAGAGAGGACAUCCGCUCACCGAGAUCGGAAGAGCACACGU
# output 7.45

# input State the recorded pKd for this entry: target 3 insG 3' of 8,insU 3' of 3 (mixed) RNA 1: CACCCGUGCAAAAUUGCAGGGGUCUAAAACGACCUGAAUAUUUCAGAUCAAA RNA 2: GGGAAUGGAUCCACAUCUACGAAUUCGUUUUUGAUCUGAAAUAUGUCAGGUUCUGCAGAUCGGAAGAGCACACGU
# output 7.07
